Data origin, for the record: the MegaScale stability set (Tsuboyama et al. 2023)

This section presents variants with their documented folding stability dG values.
B1: EHEE_rd2_0191 (parent)
chain: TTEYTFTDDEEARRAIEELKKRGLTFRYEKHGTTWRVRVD

Variants of: B1
test.protocol: folding stability dG (cDNA display proteolysis); higher = more stable
measurement.parameters: PBS, room temperature
Record the result as number plus unit.

Quick one: folding stability dG for T34L ?
2.33 kcal/mol

Can you check K21V next?
1.66 kcal/mol

// next record D8Y
0.721 kcal/mol

Param item: Y28S
1.34 kcal/mol

What about R38M ?
2.81 kcal/mol

Ok, now F26V
2.73 kcal/mol

Moving on to the next variant: L24K
1.55 kcal/mol

Now consider D8E and answer again.
1.29 kcal/mol

D9I , same question.
2.08 kcal/mol

Another variant to look at: K30M
1.43 kcal/mol
